- Tested on: K4 kissing-loop RNA reporter
- assay.info: apparent KD of K4 kissing-loop reporter; higher = weaker reporter binding
- conditions.used: Eterna round: R107; input ligand: FMN 200 uM
Use 400 nM as the dividing line for apparent KD of K4 kissing-loop reporter, with the line itself on the 1 (yes) side and lower values as 0 (no).

AAGGCACGGCUUCGGCCGUGCCAAAUAGAUACCAGCAUAAUAAUAUGCCCUUGGCAGCUAAAUAUAAAUUCAGUGAUGUUGGAUA [SS Theo A Tesla 2.2]
1 (yes)
UUAGAUCAAAGAUCAGUCUUAUGGAGGGAACGAGGACCGGUACGGCCGCCACUCGAGUGAUGUUCGAGAACCCUCGUGACAAAUU [AK4 EXC Tryptophan A]
0 (no)
UGACUGGACUGAAGGAGCGCGCGAGACAAAGUCUCGAACUGCUAGUGAUGUUAGCAAAUAACGCAGGUAGGUCGCAGUCUAGUCU [ArgBS 11 #SwitchBubble #StaticStem #DoubleMagnet]
0 (no)
UUUUGCUAGCGAAACGCUAGCUUAACAGAUACCAGUCGCGAAAGCGACCCUUGGCAGCUGCUGAGUGAUGUUCAGGUGAGAGUUA
0 (no)
AACGUGGCCAAAGGAUAUCUCCCUACGUCGUUGCAUCUACCUCUGUUUGCUCUGAGUGAUGUUUGGAGAGAAGGUUGAGGCGAUU [theeternabot_exclusion_KL_FMN_B_29]
1 (yes)

* * *

- Tested on: K4 kissing-loop RNA reporter;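 note: bound reporter read as fluorescence of individual clusters on recovered sequencing chips by microscopy, with normalized cluster intensities fitted with a binding model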
- assay.info: apparent KD of K4 kissing-loop reporter; higher = weaker reporter binding
- conditions.used: Eterna round: R107; input ligand: theophylline 20 uM
result.type: apparent KD of K4 kissing-loop reporter (nM)

CUAUGAGUGAUGUUCGUAGGUUGGGCUUGGCAGGAUAUGGGAUCUUCCAGAAGGGCCGAUUCCGGCGAGUGAUGUUCGUUGGUCU [Exclusion FMN A GF30]
43.2
CGUGUAAUGUGGAGAUUUGAAAAGGCGCAUCGAGGACCGGUACGGCCGCCACUCGCUACGAGCUAGUGAUGUUGGCUCGUUCGGA [theeternabot_sameState_KL_Trp_A_23]
252
CCAAGCGUCAGCGAUACCAGAAUUCUAGUGAUGUUAGGUUCUGUCAUUGUACUAGCAGUGUUCCCUUGGCAGCGCGUGAUAGGCA [theeternabot_exclusion_KL_Theo_B_16]
173
UGAUACCAGACGGCCGCCACUACACCAGUCAAAGACUGGAUGUGAUGUUUGACCAGUGAUGUUGGUAGGACCGGGUCUGGUAUCU [TrypBX 5 #Palindromic #SwitchBubble #StaticStem]
494
GGAGGAGAAUAUGAUACCAGCAGAGAGAGAGAGGAAGUAUAGUGAUGUUAUAUGUGAGAAUGCCCUUGGCAGCAUAACAAGAAGG [whbob_SS_Theo_B_sa88]
116
AAGCAGUCUCUCGAAGCCAUCGAAGAUGGGCGAGGACCGGUACGGCCGCCACUCGGAGUGAUGUUCCGAAGACUGCAAAAUAAAA [MatMod 10 - Jieux - Exclusion - Tryptophan A]
243
AUGCGCAGCCUGCUUACGUAUGAGCCGGAAGGAGCGGCAGAAUUGCCAGGUAGGUCGCCGGCCCAGUGAUGUUGGGAUGGUGUGG [Atusqubela]
419
AGUACAAUGGCGGCCGCCACUCAAUGGGCGACCGAAAGGUCGCAUCACUCAGUGAUGUUGAGUGAGAGGACCGGGCCUUUGUACA [Omei KL Tryp B SS B v8]
595
UUUCUAUCGGGAAGGAGCGUGAAUGAUAAUGGAUAUAGUGAUGUUAUAUAUAAGAACGAAUCGCAGGUAGGUCGCCCGGAUGACU [SSArgB.R]
389
UCGCGUAAUGGAAGGAGCGGUGCCAGUGAUGUUGGAUACUGCGUGUAUUAGGUCGGAGCGCACCAGGUAGGUCGCCAUUUGGUGG [Tigedies]
271
AGUAGUUGGACGGCCGCCACUGGAACAGCUUUGCCAAAGGCAGAGCACUAGAGUGAUGUUCUAGCUAGGACCGGGUCCAACUACA [whbob_SS_Tryp_B_t16]
249
AAUUUACAUUAAUUAUUUAAAGGUUCAGAAGGAGCGUGAAUUAACACAGGUAGGUCGCUGAGCGAGUGAUGUUCGCUAUAUACUA [JR_ExcArginiA_Sub003]
91.1
